These data points were gathered from the supplement of paper PMC12764529.

ASSAY NAME: folding stability dG unfold from chymotrypsin proteolysis; higher = more stable
folding stability dG unfold listing for selected sequences.
MEASURED METRIC: folding stability dG unfold (kcal/mol)

| RESIDUE STRING | MEASURED METRIC | UNIT INFO | QUANTITATIVE READOUT |
| --- | --- | --- | --- |
| SAGGSAGGSAGPPIMVMVHKHDKEDGKPKIDESIPIDIPPDQQDKLKEEANERGYHVHPFSAGGSAGGSAGG [r17_18_TrROS] | folding stability dG unfold | kcal/mol | 0.0379 |
| SAGGSPPDKWVTLPFTMRYPDNGLEVEVNIVINPDDGKIQVEMEVYDNGKPKQEVPATIPADEIKLSAGGSA [r2_188_TrROS] | folding stability dG unfold | kcal/mol | 0.594 |
| SAGGSAMTIEKREDGYLVITVDVPPGTSPEELAERLKKLFPNEEVTVTVVKDGKLVKEFVIKAEDLSAGGSA [r15_1047_TrROS_Hall] | folding stability dG unfold | kcal/mol | 2.06 |
| SAGGSAGGSAGYTVSVSVETETLKYLDPETGELVEEETLVRVTITITPPPPAPPNLPENLSAGGSAGGSAGG [r17_493_TrROS_Hall] | folding stability dG unfold | kcal/mol | 2.76 |
| SAGGSAGGMTVTFTLPATAPENALENVTATVTYNGKTYLVKITATPVPDGPFVVVTAELVEYDPSAGGSAGG [r6_415_TrMRF] | folding stability dG unfold | kcal/mol | 3.68 |
| SAGGSATSIEYESPGVVETVSFTREPDGTLTVTVTVREPNGPVLKTLPTTETLPPDAGVTASVPLPSAGGSA [r15_950_JUSTAS] | folding stability dG unfold | kcal/mol | 0.921 |
| SAGGSAGGSAKTITITVKPEDMTEEELKEKIAEELGIDPEEIEIVKVEKLPNGEVKVTIKIKSAGGSAGGSA [r18_118_TrROS_Hall] | folding stability dG unfold | kcal/mol | 1.93 |
| SAGGGTFYLVVKVEKVAPNPETGELVEERLELVIPGKAPNAVSEEDLKAFVDALLPLGYKVEVELREGSAGG [r13_926_TrMRF] | folding stability dG unfold | kcal/mol | 2.07 |
| SMVRITVYRNGKELSEEELRELAAELERETGRRITVEELARRLAARPGLTVRIEVFNEDGELVEERELRVSA [r9_1045_TrROS_Hall] | folding stability dG unfold | kcal/mol | 5.14 |
| SAGGMVEITATVGSPDPSLTDEEIAERILKELGLDPEIVEVTFLERRLVPDAAGRVRVVVEMKFLVPEKSAG [r5_528_JUSTAS] | folding stability dG unfold | kcal/mol | 4.26 |
| SAGGETKTFTIDEIRAKLKEALDNGIDEVRITVFRDGKEEEITIPASKLDEIIASLPPDATVRIERVSAGGS [r16_636_TrROS_Hall] | folding stability dG unfold | kcal/mol | 1.86 |
| SAGKKKIKIKLENGETKTLEIKPGETVEITFPNGLKATITKVKDGKIEIKVKEVYVKDKNGKWKKLKDLSAG [r5_417_TrROS_Hall] | folding stability dG unfold | kcal/mol | 2.6 |
| SAGGKIEELAKELAKKLNIEKVEVEEKDGKLVVKLVVKDKKTNKYYRITIEVDDDGNIKISIEPLPPSAGGS [r16_433_TrROS_Hall] | folding stability dG unfold | kcal/mol | 5.17 |
